We begin with a simple list: items and their reported shrunken log2 fold change.
Test system: Escherichia coli TOP10;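 further: peptides expressed intracellularly from a pBAD plasmid library in pooled LB shake-flask culture, induced with 0.3% L-arabinose, DNA abundance read by NGS, three biological replicates, DESeq2 with apeglm shrinkage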
ASSAY_NOTES: shrunken log2 fold change of peptide-encoding DNA abundance (4.5 h post-induction vs induction); higher = less antimicrobial activity (less host growth inhibition)
TEST_CONDITIONS: time post-induction: 4.5 h; library: site-saturation at positions 5, 18, 19, 20
Field format: numeric only.

Q. Sample `RRIRKRPPRLPRPRPRPQNEPRP` — what was its shrunken log2 fold change?
A. -0.0827

Q. Sample `RRIRARPPRLPRPRPRPRWLPRP` — what was its shrunken log2 fold change?
A. 0.68

Q. Sample `RRIRRRPPRLPRPRPRPLADPRP` — what was its shrunken log2 fold change?
A. 0.311

Q. Sample `RRIRYRPPRLPRPRPRPSKGPRP` — what was its shrunken log2 fold change?
A. -0.203

Q. Sample `RRIRMRPPRLPRPRPRPTSRPRP` — what was its shrunken log2 fold change?
A. 0.385

Q. Sample `RRIRFRPPRLPRPRPRPNSLPRP` — what was its shrunken log2 fold change?
A. -0.189

Q. Sample `RRIRPRPPRLPRPRPRPKEMPRP` — what was its shrunken log2 fold change?
A. -0.106

Q. Sample `RRIRFRPPRLPRPRPRPCYRPRP` — what was its shrunken log2 fold change?
A. -0.573

Q. Sample `RRIRMRPPRLPRPRPRPRIKPRP` — what was its shrunken log2 fold change?
A. 0.0377

Q. Sample `RRIRWRPPRLPRPRPRPRACPRP` — what was its shrunken log2 fold change?
A. 0.468

Q. Sample `RRIRHRPPRLPRPRPRPNMLPRP` — what was its shrunken log2 fold change?
A. -0.387

Hey, just so you know, these numbers are from the supplement of paper PMC9112550.
